System: Voltage-gated potassium channel subunit beta-2 (Rattus norvegicus)
Test protocol: KvBeta positive modulators, primary screen, biochemical, NADPH fluorescence (AID 623);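 further: fluorescence intensity change per second fitted from 20 to 320 s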
Experimental conditions: Recombinant KvBeta, NADPH fluorescence decrease slope, 10 min; at 10 µM; stronger effect = lower value
NADPH fluorescence slope listing for selected compounds.
Enter the number alone.

# query: NADPH fluorescence slope of entry `O=C(c1ccc(=O)oc1)N1CCN(c2ccc(F)cc2)CC1`
-4.3e-05

Same question for `Cc1cc(C)nc(NC2=NCC(=O)N2c2ccccc2)n1` please.
-3.7e-05

Same question for O=C(O)c1cc2n(n1)C(C(F)(F)F)CC(c1ccccc1)N2 (configuration not stated) please.
-0.000107

###

System: Muscarinic acetylcholine receptor M4 (Homo sapiens) (UniProt P08173)
Sequence (P08173 whole entry, looked up): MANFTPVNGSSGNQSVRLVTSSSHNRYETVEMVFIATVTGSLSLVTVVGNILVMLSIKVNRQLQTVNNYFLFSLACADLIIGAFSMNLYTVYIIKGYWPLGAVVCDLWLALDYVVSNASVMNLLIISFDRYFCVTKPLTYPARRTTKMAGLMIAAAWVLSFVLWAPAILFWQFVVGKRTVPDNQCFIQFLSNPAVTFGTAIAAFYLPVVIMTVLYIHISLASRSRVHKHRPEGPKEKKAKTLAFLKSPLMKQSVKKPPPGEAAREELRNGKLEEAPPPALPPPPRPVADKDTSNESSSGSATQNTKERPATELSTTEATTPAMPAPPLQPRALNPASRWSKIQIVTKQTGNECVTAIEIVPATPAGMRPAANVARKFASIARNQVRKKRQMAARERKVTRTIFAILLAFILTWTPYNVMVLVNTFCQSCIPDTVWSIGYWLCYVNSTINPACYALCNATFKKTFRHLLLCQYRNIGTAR
Test protocol: compounds altering M4/GIRK thallium flux, either direction, primary screen, M4 allosteric agonist project, cell-based, HEK293 M4/GIRK, BTC-AM (AID 625);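 further: thallium influx through GIRK channels coupled to M4 in HEK293 cells with BTC-AM dye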
Experimental conditions: at 10 µM, actives lie on both sides
Label scheme for fluorescence slope: lower than 0.005 is false, 0.005 and above is true.

# example entries with known answers
1) CCOC(=O)c1c(C)[nH]c(/C(C)=N/O)c1C ... true
2) COC(=O)c1cc(=O)n2c(-c3ccc(OC)cc3)csc2n1 ... true
3) COc1ccc(OC)c(C2/C(=C(\O)c3ccc4c(c3)OCCO4)C(=O)C(=O)N2CCCN(C)C)c1 (centres undefined) ... false
4) Cc1c(NC(=O)c2coc(=O)c(Br)c2)c(=O)n(-c2ccccc2)n1C ... true
5) Cn1c(=O)c2c(nc(NCC(O)CO)n2CCc2ccccc2)n(C)c1=O (centres undefined) ... true
6) COc1ccc2c(c1)n([O-])c1c([n+]2=O)CCC1 ... false
7) O=C1CCC(=O)N1CN(Cc1ccco1)CN1C(=O)CCC1=O ... true
8) COc1ccc2c(c1)[nH]c1c(=O)n(CC3CCCO3)cnc12 (centres undefined) ... true

Reported fluorescence slope reaches at least 0.005 for `COc1ccc(-c2onc(C)c2-c2ccccc2)c(O)c1` ?
true

Same question for CCN(CC)CCN1C(=O)C(O)=C(C(=O)c2cccs2)C1c1ccccn1 (centres undefined) please.
true

Same question for `CCOC(=O)C1CCN(C(C)=C2C(=O)c3ccccc3C2=O)CC1` please.
false

Same question for `CCCCOc1ccc(C(=O)Nc2ccc(N3CCN(C(C)=O)CC3)cc2)cc1` please.
true

Same question for `CC(=O)C1=C(NC(=O)c2ccccc2F)C[C@@H]2[C@H]1C2(C)C` please.
true

Same question for `Nc1nc(NC(=O)c2cccs2)nn1-c1ccccc1` please.
true

Same question for `CCCCCCn1c(SCCN2CCOCC2)nc2c1c(=O)[nH]c(=O)n2C` please.
true

Same question for `CCN(CC)C(=O)c1sc2nc(-c3cccs3)cc(-c3cccs3)c2c1N` please.
false

Same question for CC1(C2(O)CC(c3ccccc3)ON2)CCCCC1 (centres undefined) please.
true

###

inhibition listing for selected compounds.
Test protocol: inhibitors of E-selectin induction by TNFa, primary screen, imaging, HUVEC, immunofluorescence, MLSMR starter and 10KST1 sets (AID 487);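 on inhibition: signal is fraction of cell area covered by stained E-selectin grains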
Experimental conditions: HUVEC TNFalpha-induced E-selectin immunofluorescence imaging, at 2 µM; stronger effect = higher value
All answers are understood in %, so give the number only.

1) CCCCOC(=O)CSC1=C(C#N)C(c2ccccc2OC)C(C#N)C(=O)N1 (stereo unspecified) ... -46
2) CCC(CC)C1C(C#N)=C(N)Oc2n[nH]c(C)c21 (stereo unspecified) ... -21.1
3) Cc1ccc(S(=O)(=O)NCC(=O)OCN2C(=O)c3ccccc3C2=O)cc1 ... -23.1
4) CCCCOc1ccc(CN(C)c2ncnc(N)n2)cc1 ... -51.5
5) O=C(O)CCN(CCC(=O)O)c1nnc(SCc2ccccc2)s1 ... -187

Now for another entry.
# query: inhibition of entry N#CC1=C(SCc2ccccc2)NC2=C(C(=O)CCC2)C1c1ccc2c(c1)OCO2 (stereo unspecified)
-54.8

###

System: Alpha-2C adrenergic receptor (Homo sapiens) (UniProt P18825)
Sequence (P18825 whole entry, looked up): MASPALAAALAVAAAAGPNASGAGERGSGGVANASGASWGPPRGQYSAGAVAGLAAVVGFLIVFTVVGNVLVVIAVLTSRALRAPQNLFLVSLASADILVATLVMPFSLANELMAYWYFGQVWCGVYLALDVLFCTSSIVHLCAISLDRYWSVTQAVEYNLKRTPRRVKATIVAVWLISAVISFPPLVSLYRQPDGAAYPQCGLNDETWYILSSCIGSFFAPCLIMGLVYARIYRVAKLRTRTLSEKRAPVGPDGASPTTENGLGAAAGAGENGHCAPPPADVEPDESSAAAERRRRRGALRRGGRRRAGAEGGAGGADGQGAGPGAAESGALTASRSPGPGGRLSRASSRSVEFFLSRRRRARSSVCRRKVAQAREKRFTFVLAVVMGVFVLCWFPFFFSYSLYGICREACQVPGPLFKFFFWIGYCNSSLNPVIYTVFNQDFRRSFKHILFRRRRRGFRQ
Test protocol: modulators of alpha2C/GIRK thallium flux, primary screen, cell-based, HEK293 alpha2C/GIRK1/2 (AID 624);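 further: slope of fluorescence ratio to pre-addition baseline per second over 15 to 24 s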
Experimental conditions: thallium flux BTC fluorescence, at 10 µM, actives lie on both sides
Quantity name: slope
Enter the number alone.

// below: answered compounds
1. C=CCOn1c(=O)c(-c2cc3ccccc3o2)[n+]([O-])c2ccccc21 ... 0.00548
2. CC1(C(=O)CSc2nc3ccccc3s2)CCC(=O)O1 (stereo unspecified) ... 0.00616
3. Cc1ccc(S(=O)(=O)/C(C#N)=C/c2c(N3CCN(C)CC3)nc3c(C)cccn3c2=O)cc1 ... 0.00164
4. c1coc(-c2nnc3sc(-c4cccs4)nn23)c1 ... 0.00352
5. Cc1nc2ccccn2c(=O)c1CCN1CCC(C(=O)c2ccc(F)cc2)CC1 ... 0.00457

Now for another entry.
# query: slope of entry CCCCOc1nc2ccccc2nc1C(C#N)C(=O)NC1CCCCC1 (stereo unspecified)
0.00654

###

Test protocol: inhibitors of E-selectin induction by TNFa, primary screen, imaging, HUVEC, immunofluorescence, MLSMR starter and 10KST1 sets (AID 487);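 on nuclei count: 100% = median nuclei count of all wells on the same plate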
Experimental conditions: HUVEC TNFalpha-induced E-selectin immunofluorescence imaging, at 2 µM; measured here: cell number, toxicity
nuclei count listing for selected compounds.
All answers are understood in %, so give the number only.

// below: answered compounds
1) COc1cccc(-c2nnc3sc(-c4cccs4)nn23)c1 ... 158
2) CC(=O)N=C(N)Sc1nc2ccccc2[nH]1 ... 161

# query: nuclei count of entry `COc1ccc2c(c1)nc(N)n2Cc1ccccc1`
168

Same question for CC1(C)CC(N(Cc2ccco2)C(=O)Cc2ccccc2)CCO1 (stereo not given) please.
145

Same question for `CC(=O)OCC(=O)[C@@]1(O)CC[C@H]2[C@@H]3CCC4=CC(=O)CC[C@]4(C)[C@H]3[C@@H](O)C[C@@]21C` please.
121

Same question for `COc1cccc(-c2nc(N3CCN(Cc4ccccc4)CC3)c3ccccc3n2)c1O` please.
126

Same question for `O=C(c1nsnc1-c1ccccc1O)N1CCCCC1` please.
86.9

Same question for `CC(=O)Oc1cc(C(C)C)c(OCCN(C)C)cc1C` please.
108

Same question for CCOC(=O)NC(O)C(=O)c1cccs1 (stereo not given) please.
153

Same question for `CN1CCN(CCCN2c3ccccc3Sc3ccc(C(F)(F)F)cc32)CC1` please.
121

Same question for `C[C@@H]1C[C@H]2[C@@H]3C[C@H](F)C4=CC(=O)C=C[C@]4(C)[C@@]3(F)[C@@H](O)C[C@]2(C)[C@@]1(O)C(=O)COC(=O)C(C)(C)C` please.
92.6

Same question for `CC1(C)Cc2c(C#N)c(NCCc3ccccc3)nc(-c3ccco3)c2CO1` please.
184

Same question for CCC(=O)OC1=C2C(=Nc3c(c(=O)n(C)c(=O)n3C)C2c2ccccc2)c2ccccc21 (stereo not given) please.
75.2

Same question for `CC(C)[N+](C)(CCOC(=O)C1c2ccccc2Oc2ccccc21)C(C)C` please.
138

Same question for `COCc1cc(=O)[nH]c(Nc2nc3ccc(C)cc3o2)n1` please.
156

Same question for `Clc1ccc(-c2nnc3sc(Cc4cccs4)nn23)cc1` please.
134

Same question for C/C(CC1(O)C(=O)N(Cc2ccccc2)c2ccccc21)=N\O (stereo not given) please.
182

Same question for COc1cccc(Cn2c(OCC3CCCO3)nc3c2c(=O)n(C)c(=O)n3C)c1 (stereo not given) please.
153

Same question for `CO[C@H]1C[C@@H]2CC[C@@H](C)[C@@](O)(O2)C(=O)C(=O)N2CCCC[C@H]2C(=O)O[C@H]([C@H](C)C[C@@H]2CC[C@@H](O)[C@H](OC)C2)CC(=O)[C@H](C)C=C(C)[C@@H](O)[C@@H](OC)C(=O)[C@H](C)C[C@H](C)C=CC=CC=C1C` please.
106

Same question for COC(=O)c1[nH]c(C)c(/C(O)=C2\C(=O)C(=O)N(CCN3CCOCC3)C2c2cccnc2)c1C (stereo not given) please.
163

###

inhibition listing for selected compounds.
System: Dual specificity protein phosphatase 6 (Homo sapiens) (UniProt Q16828)
Sequence (Q16828 whole entry, looked up): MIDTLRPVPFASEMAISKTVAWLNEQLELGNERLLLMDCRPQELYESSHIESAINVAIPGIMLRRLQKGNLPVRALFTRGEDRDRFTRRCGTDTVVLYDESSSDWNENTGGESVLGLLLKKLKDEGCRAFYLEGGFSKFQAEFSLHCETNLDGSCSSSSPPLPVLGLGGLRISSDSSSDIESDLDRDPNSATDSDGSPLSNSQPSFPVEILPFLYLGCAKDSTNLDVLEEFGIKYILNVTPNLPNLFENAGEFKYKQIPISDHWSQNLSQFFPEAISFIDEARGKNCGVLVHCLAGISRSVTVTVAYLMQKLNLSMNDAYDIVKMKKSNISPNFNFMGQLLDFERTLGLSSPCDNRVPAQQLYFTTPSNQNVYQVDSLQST
Test protocol: DUSP6 inhibitors restoring Erk phosphorylation by chemical complementation, primary imaging in DUSP6-transfected HeLa (AID 609);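 further: phospho-Erk level distribution per well compared with pooled transfected vehicle control wells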
Experimental conditions: HeLa MKP-3 transfected, phospho-Erk imaging KS statistic; at 10 µM; stronger effect = higher value; cells stimulated with TPA for 15 min
All answers are understood in %, so give the number only.

// below: answered compounds
1. CNc1nc(C)c(C#N)cc1C(C)=O ... 5.65
2. Cc1nn(C)cc1/C=N/O ... -1.12
3. COc1cc(N2C(=O)CSC23C(=O)Nc2ccccc23)cc(OC)c1OC (stereo unspecified) ... 1.6e-07

# query: inhibition of entry CC(=O)C1=C(O)C(=O)N(c2cccc(C(=O)O)c2)C1c1ccc(F)cc1 (stereo unspecified)
-6.06

Same question for `O=C(NCc1ccccc1)c1ccc(=O)[nH]n1` please.
11.3
